tested on: fibrinogen; assay: Systemic inflammation marker fibrinogen (DSS model); type: in vivo, mice; details: vs DSS group; HED 10 mg

Compound	Tested On	Blood fibrinogen levels
CCCC(=O)OCC1OC(Oc2cc(O)cc(/C=C/c3ccc(O)cc3)c2)C(O)C(O)C1O (stereo not shown)	fibrinogen	most notable differences
CCCCCCCC(=O)OCC1OC(Oc2cc(O)cc(/C=C/c3ccc(O)cc3)c2)C(O)C(O)C1O (stereo not shown)	fibrinogen	most notable differences
OC[C@H]1O[C@@H](Oc2cc(/C=C/c3ccc(O)cc3)cc(O[C@@H]3O[C@H](CO)[C@@H](O)[C@H](O)[C@H]3O)c2)[C@H](O)[C@@H](O)[C@@H]1O	fibrinogen	most notable differences
